Recorded interaction score, one value per entry.
Target: T1, 4H717-bA
T1 chain: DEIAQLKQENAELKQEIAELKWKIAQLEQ
Test: two-hybrid library CCNG1;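 also: natural log of median RNA to DNA barcode read ratio; higher means stronger binding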
API note: the answer field is a bare number with no unit suffix.

// known answers, use as guide
# Binder, interaction score
data = [
    ("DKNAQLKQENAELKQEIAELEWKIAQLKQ [4H3782-bA]", -0.182),
    ("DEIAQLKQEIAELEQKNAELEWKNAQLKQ [4H568-bA]", -0.468),
    ("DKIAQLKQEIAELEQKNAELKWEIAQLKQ [4H2618-bA]", -1.08),
    ("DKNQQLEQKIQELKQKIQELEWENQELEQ [4H3427-bN]", -0.117),
    ("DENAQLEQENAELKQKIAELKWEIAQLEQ [4H1257-bA]", -0.0683),
]

stdin: Specify interaction score for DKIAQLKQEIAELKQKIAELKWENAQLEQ [4H2667-bA] and stop.
stdout: -1.61

stdin: Specify interaction score for DEIAQLEQKNAELKQEIAELEWKIAQLKQ [4H454-bA] and stop.
stdout: 0.262

stdin: Specify interaction score for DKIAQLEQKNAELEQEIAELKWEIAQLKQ [4H2442-bA] and stop.
stdout: -0.902

stdin: Specify interaction score for DKNAQLKQKIAELEQEIAELKWKNAQLEQ [4H3855-bA] and stop.
stdout: -0.336

stdin: Specify interaction score for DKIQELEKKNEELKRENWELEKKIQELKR [4H2518-bH] and stop.
stdout: -0.768
